Attribution: patent US8530517B2

Test system: human ovarian cancer cell line A2780
Assay: Cytotoxicity on A2780 tumor cell line
Format: cell-based
Conditions: Homo sapiens, A2780; 5 Mm as printed in head (text: 5 μM); preliminary results
Where a name gives a salt, the structure may show the parent alone.
value-kind: inhibition at 5 µM (%)
Record the value in %, omitting the unit from your answer.

In: What is its inhibition at 5 µM for human ovarian cancer cell line A2780? Entry: NC1(C(=O)Oc2ccc(-c3ccc(/C=C/C(=O)O)cc3)cc2C23CC4CC(CC(C4)C2)C3)CC1.O=C(O)C(F)(F)F [Example 20, trifluoroacetate]
Out: 94

In: O=C(O)/C=C/c1ccc(-c2ccc(OC(=O)NCCN3CCOCC3)c(C34CC5CC(CC(C5)C3)C4)c2)cc1 [Example 9, hydrochloride] , same question.
Out: 90

In: `O=C(O)/C=C/c1ccc(-c2ccc(OC(=O)COCCOCCOCC(=O)O)c(C34CC5CC(CC(C5)C3)C4)c2)cc1` , same question.
Out: 93

In: CC(C)[C@H](N)C(=O)Oc1ccc(-c2ccc(/C=C/C(=O)O)cc2)cc1C12CC3CC(CC(C3)C1)C2 [Example 1, hydrochloride] , same question.
Out: 93

In: `O=C(O)/C=C/c1ccc(-c2ccc(OC(=O)NCC(=O)O)c(C34CC5CC(CC(C5)C3)C4)c2)cc1` , same question.
Out: 26

In: CN1CCN(CCCC(=O)Oc2ccc(-c3ccc(/C=C/C(=O)O)cc3)cc2C23CC4CC(CC(C4)C2)C3)CC1 [Example 5, dihydrochloride] , same question.
Out: 92

In: `CCCCCCCCCCC(=O)Oc1ccc(-c2ccc(/C=C/C(=O)O)cc2)cc1C12CC3CC(CC(C3)C1)C2` , same question.
Out: 94

In: `CNCCNC(=O)Oc1ccc(-c2ccc(/C=C/C(=O)O)cc2)cc1C12CC3CC(CC(C3)C1)C2` , same question.
Out: 93

In: `O=C(O)/C=C/c1ccc(-c2ccc(OC(=O)NC3CCN(C(=O)OCc4ccccc4)CC3)c(C34CC5CC(CC(C5)C3)C4)c2)cc1` , same question.
Out: 71

In: `COCCOCOc1ccc(-c2ccc(/C=C/C(=O)O)cc2)cc1C12CC3CC(CC(C3)C1)C2` , same question.
Out: 78

In: `CCCCCC=CC/C=C/CCCCCCCC(=O)Oc1ccc(-c2ccc(C=CC(=O)O)cc2)cc1C12CC3CC(CC(C3)C1)C2` , same question.
Out: 55

In: NCCCCNC(=O)Oc1ccc(-c2ccc(/C=C/C(=O)O)cc2)cc1C12CC3CC(CC(C3)C1)C2 [Example 8, hydrochloride] , same question.
Out: 70

In: Cl.O=C(O)/C=C/c1ccc(-c2ccc(OC(=O)CCCN3CCOCC3)c(C34CC5CC(CC(C5)C3)C4)c2)cc1 [Example 4, hydrochloride] , same question.
Out: 94
